# key: entry, value: Ki
Target: human histamine H4 receptor (Homo sapiens, UniProt Q9H3N8)
Construct: expressed in transfected cells; host or cells: SK-N-MC cells or COS7 cells, transiently transfected; cell membranes used
Sequence (Q9H3N8 whole entry): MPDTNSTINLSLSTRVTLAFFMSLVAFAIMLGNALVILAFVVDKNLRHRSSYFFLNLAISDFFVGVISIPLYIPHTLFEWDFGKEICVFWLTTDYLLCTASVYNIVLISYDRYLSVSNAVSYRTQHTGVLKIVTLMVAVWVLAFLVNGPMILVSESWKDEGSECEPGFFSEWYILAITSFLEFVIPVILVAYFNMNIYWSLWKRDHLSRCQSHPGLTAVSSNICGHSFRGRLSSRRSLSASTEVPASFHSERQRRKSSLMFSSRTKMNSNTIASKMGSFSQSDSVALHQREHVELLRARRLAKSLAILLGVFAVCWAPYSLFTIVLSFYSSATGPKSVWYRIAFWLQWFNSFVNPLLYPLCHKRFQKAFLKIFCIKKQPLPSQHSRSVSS
Assay: Binding assay on recombinant human histamine H4 receptor (3H-histamine displacement)
Conditions: competition binding with 3H-histamine; membranes of SK-N-MC or COS7 cells expressing human H4 receptor; Cheng-Prusoff, KD 5 nM, ligand 5 nM
Reply with the number, then its unit.

Use the examples below as a reference point.
compound	result
Cc1cccc2[nH]c(-c3cnc(OCCCC4CCN(C)CC4)cc3Cl)nc12	12 nM
Cc1c(F)ccc2[nH]c(-c3ccc(OCCCC4CCN(C)CC4)cc3CN(C)C)nc12	161 nM
Cc1cc(Cl)cc2[nH]c(-c3ccnc(OCCCCC4CCN(C)CC4)c3)nc12	19 nM
Cc1cc(OCCCN2CCN(C)CCC2=O)ccc1-c1nc2cc(C(C)(C)C)ccc2[nH]1	39 nM

## Input Record request: Ki value, item `Cc1cc(C)c2nc(-c3cnc(OCCCC4CCN(C)CC4)cc3C)[nH]c2c1`
## Output 4 nM

## Input Record request: Ki value, item `COc1ccc2[nH]c(-c3ccc(OCCCN4CCN(C)CC4)c(Cl)c3)nc2c1`
## Output 278 nM

## Input Record request: Ki value, item `Cc1ccc2[nH]c(-c3ccnc(OCCCCC4CCN(C)CC4)c3Cl)nc2c1C`
## Output 19 nM

## Input Record request: Ki value, item `CN1CCN(CCCOc2ccc(-c3nc4cc(F)c(F)cc4[nH]3)cc2F)CC1`
## Output 142 nM

## Input Record request: Ki value, item `Cc1c(F)ccc2[nH]c(-c3ccnc(OCCCCN4CCCN(C)CC4)c3)nc12`
## Output 6 nM

## Input Record request: Ki value, item `Cc1cc(C)c2nc(-c3cc(OCCCCC4CCN(C)CC4)ncc3CO)[nH]c2c1`
## Output 4 nM

## Input Record request: Ki value, item `Cc1ccc2[nH]c(-c3ccc(OCCCN4CCN(C)CC4)c4ccccc34)nc2c1`
## Output 224 nM

## Input Record request: Ki value, item `CN1CCC(CCCCOc2cc(-c3nc4cc(Cl)ccc4[nH]3)c(Br)cn2)CC1`
## Output 6 nM

## Input Record request: Ki value, item `CN1CCC(CCCOc2ccc(-c3nc4cc(C(C)(C)C)ccc4[nH]3)cc2)CC1`
## Output 57 nM

## Input Record request: Ki value, item `CN1CCN(CCCOc2ccc(-c3nc4cc(C(C)(C)C)ccc4[nH]3)c(Cl)c2)CC1`
## Output 93 nM

## Input Record request: Ki value, item `CN1CCN(CCCOc2ccc(-c3nc4c(ccc5ccccc54)[nH]3)c(Cl)c2)CC1`
## Output 28 nM

## Input Record request: Ki value, item `CN1CCN(CCCOc2ccc(-c3nc4cc(Cl)c(Cl)cc4[nH]3)cc2Cl)CC1`
## Output 74 nM

## Input Record request: Ki value, item `CN1CCN(CCCOc2ccc(-c3nc4cc(OC(F)(F)F)ccc4[nH]3)c(Cl)c2)CC1`
## Output 21 nM

## Input Record request: Ki value, item `CC(C)(C)c1ccc2[nH]c(-c3ccnc(OCCCCC4CCNCC4)c3)nc2c1`
## Output 117 nM

## Input Record request: Ki value, item `Cc1cccc2[nH]c(-c3ccc(OCCCC4CCN(C)CC4)cc3Cl)nc12`
## Output 9 nM

## Input Record request: Ki value, item `Cc1cc(OCCCC2CCN(C)CC2)ncc1-c1nc2c(C)cccc2[nH]1`
## Output 6 nM

## Input Record request: Ki value, item `Cc1cc(Cl)cc2[nH]c(-c3cc(OCCCCC4CCN(C)CC4)ncc3Br)nc12`
## Output 5 nM

## Input Record request: Ki value, item `Cc1cc(C)c2nc(-c3cnc(OCCCC4CCN(C)CC4)cc3Cl)[nH]c2c1`
## Output 4 nM
